System: H292 non-small-cell lung cancer cell line
Assay: cells
Format: cell-based
Details: Homo sapiens, NCI-H292; H292, MTT, 72 h; read-out: IC50 ± S.D. H292
Property: pIC50
Interpret pIC50 as the negative base-10 log of the concentration measured in mol/L.

Use the examples below as a reference point.
INSERT INTO measurements (compound, property, recorded_value) VALUES
  ('COc1cccc2c1C(=O)c1c(O)c3c(c(O)c1C2=O)C[C@@](O)(C(=O)CO)C[C@@H]3O[C@H]1C[C@H](N)[C@H](O)[C@H](C)O1 [Doxorubicin, reference compound]', 'pIC50', 7.39),
  ('C/C=C(/C)C(=O)OC[C@H]1c2c(c(OC(=O)CNC(=O)OC(C)(C)C)c(C)c3c2OCO3)C[C@H]2[C@H]3C4=C(C[C@@H]([C@H](C#N)N12)N3C)C(=O)C(C)=C(OC)C4=O [Compound 3c]', 'pIC50', 7.41),
  ('C/C=C(/C)C(=O)OC[C@H]1c2c(c(OC(=O)c3ccco3)c(C)c3c2OCO3)C[C@H]2[C@H]3C4=C(C[C@@H]([C@H](C#N)N12)N3C)C(=O)C(C)=C(OC)C4=O [Compound 3m]', 'pIC50', 7.37),
  ('C/C=C(/C)C(=O)OC[C@H]1c2c(c(OC(=O)c3cccs3)c(C)c3c2OCO3)C[C@H]2[C@H]3C4=C(C[C@@H]([C@H](C#N)N12)N3C)C(=O)C(C)=C(OC)C4=O [Compound 3n, 5-O-(2-thiophenecarbonyl) ester]', 'pIC50', 6.86);

--- query ---
[Q] Dear colleague, I am looking for the recorded pIC50 of the following compound: C/C=C(/C)C(=O)OC[C@H]1c2c(c(OC(=O)/C=C/c3cccnc3)c(C)c3c2OCO3)C[C@H]2[C@H]3C4=C(C[C@@H]([C@H](C#N)N12)N3C)C(=O)C(C)=C(OC)C4=O [Compound 3k]
[A] 7.44

Hey, just so you know, these numbers are from paper PMC10700347.
